target: adenosine A2B receptor (Homo sapiens (Human)); test: Adenosine receptor activity assay (Table 1), A2B activity; type: biochemical; settings: A2A activity to the A2B activity; A2A/A2B
quantity: Ratio

smiles_repr: Cc1csc2c(C(=O)N3CC[C@H](O)C3)nc(N[C@@H](C)c3cncc(F)c3)nc12
quantity: Ratio
value_reported: 52.64

Task item: For the molecule C[C@H](Nc1nc(C(=O)N2CC(NC(=O)C3(C)CC3)C2)c2sccc2n1)c1cncc(F)c1 , what Ratio is on record?
Reply: 1.00

Task item: For the molecule Cc1cc2nc(N[C@@H](C)c3cncc(F)c3)nc(C(=O)N3CC(C(=O)NOC(C)(C)C)C3)c2s1 , what Ratio is on record?
Reply: 4.67

Task item: For the molecule Cc1csc2c(C(=O)N3CCCC3)nc(N[C@@H](C)c3cncc(F)c3)nc12 , what Ratio is on record?
Reply: 19.11

====

Parameter pIC50: see the listing below.
target: adenosine A3 receptor (Homo sapiens (Human), UniProt P0DMS8); experiment: Adenosine receptor activity assay (Table 1), A3 cAMP; assay type: biochemical
Sequence (P0DMS8 whole entry): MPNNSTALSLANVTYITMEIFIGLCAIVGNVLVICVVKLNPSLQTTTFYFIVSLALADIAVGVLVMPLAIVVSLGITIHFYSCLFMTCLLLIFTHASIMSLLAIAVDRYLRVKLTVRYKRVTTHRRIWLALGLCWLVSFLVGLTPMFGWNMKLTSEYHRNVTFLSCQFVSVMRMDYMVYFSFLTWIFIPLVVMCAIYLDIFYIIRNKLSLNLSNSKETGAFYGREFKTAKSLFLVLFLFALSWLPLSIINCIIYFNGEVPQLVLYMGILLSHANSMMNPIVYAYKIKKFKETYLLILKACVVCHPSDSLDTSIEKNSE
pIC50: −log10 of the molar value.

compound: Cc1cc2nc(N[C@@H](C)c3cncc(F)c3)nc(C(=O)N3CC(NC(=O)C4CCOC4)C3)c2s1 (stereo partly shown)
pIC50: 6.30 to 7.00
--
compound: Cc1cc2nc(N[C@@H](C)c3cncc(F)c3)nc(C(=O)N3CCN(C(=O)NC(C)C)C3)c2s1
pIC50: < 6.30
--
compound: Cc1cc2nc(N[C@@H](C)c3ccccn3)nc(C(=O)NCc3ccccn3)c2s1
pIC50: 7.00 to 7.30
--
compound: Cc1csc2c(C(=O)N3CC(NC(=O)C(C)(C)C)C3)nc(N[C@@H](C)c3ccccn3)nc12
pIC50: 6.30 to 7.00

Task item: For the compound Cc1cc2nc(N[C@@H](C)c3cncc(F)c3)nc(C(=O)N3CC(N(C)C)C3)c2s1 , what pIC50 is on record?
Reply: < 6.30

Task item: For the compound COc1ccc(CCCNC(=O)c2nc(N[C@@H](C)c3cncc(F)c3)nc3ccsc23)cc1 , what pIC50 is on record?
Reply: < 6.30

Task item: For the compound C[C@H](Nc1nc(C(=O)N2CC(NC(=O)C3CCOC3)C2)c2sccc2n1)c1cncc(F)c1 (stereo partly shown) , what pIC50 is on record?
Reply: < 6.30

Task item: For the compound Cc1cc2nc(N[C@@H](C)c3cncc(F)c3)nc(C(=O)N3CC(NC(=O)OC(C)C)C3)c2s1 , what pIC50 is on record?
Reply: 7.00 to 7.30

Task item: For the compound C[C@H](Nc1nc(C(=O)NCCc2cccc(O)c2)c2sccc2n1)c1ccccn1 , what pIC50 is on record?
Reply: < 6.30

====

biological target: UniProt:P29275; assay: Adenosine receptor activity assay (Table 1), A2B activity; type: biochemical; conditions: read-out: Ave A2B cAMP IC50
Parameter IC50: see the listing below.

molecule: Cc1cc2nc(N[C@@H](C)c3ccccn3)nc(C(=O)N3CC(O)C3)c2s1 [Example Z285]
tested_on: UniProt:P29275
value_reported: < 10 nM

Task item: For the record Cc1cc2nc(N[C@@H](C)c3ccccn3)nc(C(N)=O)c2s1 [Example Z480] , what value of IC50 is listed for UniProt:P29275?
Reply: 10 to 50 nM

Task item: For the record Cc1cc2nc(N[C@@H](C)c3ccccn3)nc(C(=O)N3CC(CN)C3)c2s1 [Example Z479] , what value of IC50 is listed for UniProt:P29275?
Reply: 10 to 50 nM

Task item: For the record CO[C@H]1CCN(C(=O)c2nc(N[C@@H](C)c3cccnc3)nc3cc(C)sc23)C1 [Example Z350] , what value of IC50 is listed for UniProt:P29275?
Reply: 10 to 50 nM

Task item: For the record C[C@H](Nc1nc(C(=O)N2CC[C@H](CO)C2)c2sccc2n1)c1cncc(F)c1 [Example Z294] , what value of IC50 is listed for UniProt:P29275?
Reply: < 10 nM

Task item: For the record O=C(NC1CC(O)C1)c1nc(NCc2cncc(F)c2)nc2ccsc12 (centres unmarked) [Example Z183] , what value of IC50 is listed for UniProt:P29275?
Reply: < 10 nM

Task item: For the record COc1cccc(CNC(=O)c2nc(N[C@@H](C)c3cncc(F)c3)nc3cc(C)sc23)n1 [Example Z374] , what value of IC50 is listed for UniProt:P29275?
Reply: < 10 nM

Task item: For the record CC1CCN1C(=O)c1nc(N[C@@H](C)c2ccccn2)nc2ccsc12 (some centres unmarked) [Example Z133] , what value of IC50 is listed for UniProt:P29275?
Reply: 10 to 50 nM

====

Parameter IC50: see the listing below.
target: adenosine A2A receptor (Homo sapiens (Human)); assay: Adenosine receptor activity assay (Table 1), A2A activity; type: biochemical; conditions: read-out: Ave A2A cAMP IC50
Sequence (P29274 whole entry): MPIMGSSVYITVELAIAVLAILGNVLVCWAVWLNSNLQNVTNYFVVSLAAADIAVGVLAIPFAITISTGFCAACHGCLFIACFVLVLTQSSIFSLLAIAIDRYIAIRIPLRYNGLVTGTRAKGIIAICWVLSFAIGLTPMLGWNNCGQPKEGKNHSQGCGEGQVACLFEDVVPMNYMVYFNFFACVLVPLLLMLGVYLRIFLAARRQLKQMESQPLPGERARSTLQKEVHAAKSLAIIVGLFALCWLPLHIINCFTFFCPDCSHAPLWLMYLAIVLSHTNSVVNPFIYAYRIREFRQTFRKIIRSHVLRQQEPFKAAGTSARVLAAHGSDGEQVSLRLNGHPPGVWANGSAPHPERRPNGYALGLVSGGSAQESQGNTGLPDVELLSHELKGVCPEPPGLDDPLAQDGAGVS

The following compounds have reported results that may help.
compound: COc1cccc(CCNC(=O)c2nc(N[C@@H](C)c3ccccn3)nc3ccsc23)c1 [Example Z437]
IC50: 100 to 500 nM

compound: Cc1cc2nc(N[C@@H](C)c3ccccn3)nc(C(=O)NCc3cccnc3)c2s1 [Example Z462]
IC50: 50 to 100 nM

compound: COC[C@@H](Nc1nc(C(=O)NCCc2ccc(O)cc2)c2sccc2n1)c1cccnc1 [Example Z403]
IC50: > 500 nM

compound: C[C@H](Nc1nc(C(=O)N2CC(O)C2)c2sccc2n1)c1cccnc1 [Example Z138]
IC50: 100 to 500 nM

compound: Cc1cc2nc(N[C@@H](C)c3ccccn3)nc(C(=O)NC[C@H](C)O)c2s1 [Example Z287]
IC50: 100 to 500 nM

Task item: For the compound C[C@H](Nc1nc(C(=O)NCCc2ccc(NC(=O)OC(C)(C)C)cc2)c2sccc2n1)c1cncc(F)c1 [Example Z482] , what IC50 is on record?
Reply: > 500 nM

Task item: For the compound C[C@H](Nc1nc(C(=O)NCCNS(C)(=O)=O)c2sccc2n1)c1cncc(F)c1 [Example Z538] , what IC50 is on record?
Reply: > 500 nM

Task item: For the compound C[C@H](Nc1nc(C(=O)N2CC(C(N)=O)C2)c2sccc2n1)c1cncc(F)c1 [Example Z563] , what IC50 is on record?
Reply: > 500 nM

Task item: For the compound CC(C)(C)C(=O)N[C@H]1CCN(C(=O)c2nc(NCc3cncc(F)c3)nc3ccsc23)C1 [Example Z526] , what IC50 is on record?
Reply: 50 to 100 nM

Task item: For the compound C[C@H](Nc1nc(C(=O)N2CC[C@@H](CO)C2)c2sccc2n1)c1cccnc1 [Example Z260] , what IC50 is on record?
Reply: 100 to 500 nM

Task item: For the compound C[C@H](Nc1nc(C(=O)N2CC(NC(=O)C(C)(C)C)C2)c2sccc2n1)c1cncc(F)c1 [Example Z594] , what IC50 is on record?
Reply: < 10 nM

Task item: For the compound COCC1CN(C(=O)c2nc(N[C@@H](C)c3ccccn3)nc3cc(C)sc23)C1 [Example Z514] , what IC50 is on record?
Reply: 10 to 50 nM

Task item: For the compound CC(=O)N[C@H]1CCN(C(=O)c2nc(N[C@@H](C)c3ccccn3)nc3ccsc23)C1 [Example Z324] , what IC50 is on record?
Reply: > 500 nM

Task item: For the compound COCCNC(=O)c1nc(N[C@@H](C)c2ccccn2)nc2ccsc12 [Example Z144] , what IC50 is on record?
Reply: 50 to 100 nM

Task item: For the compound C[C@H](Nc1nc(C(=O)N2CC(NC(=O)C3CC3)C2)c2sccc2n1)c1cncc(F)c1 [Example Z517] , what IC50 is on record?
Reply: 10 to 50 nM

Task item: For the compound C[C@H](Nc1nc(C(=O)NCCc2ccc(S(C)(=O)=O)cc2)c2sccc2n1)c1cncc(F)c1 [Example Z455] , what IC50 is on record?
Reply: > 500 nM

====

Parameter IC50: see the listing below.
biological target: adenosine A2B receptor (Homo sapiens (Human), UniProt P29275); assay: Adenosine receptor activity assay (Table 1), A2B activity; assay type: biochemical; settings: read-out: Ave A2B cAMP IC50
Sequence (P29275 whole entry): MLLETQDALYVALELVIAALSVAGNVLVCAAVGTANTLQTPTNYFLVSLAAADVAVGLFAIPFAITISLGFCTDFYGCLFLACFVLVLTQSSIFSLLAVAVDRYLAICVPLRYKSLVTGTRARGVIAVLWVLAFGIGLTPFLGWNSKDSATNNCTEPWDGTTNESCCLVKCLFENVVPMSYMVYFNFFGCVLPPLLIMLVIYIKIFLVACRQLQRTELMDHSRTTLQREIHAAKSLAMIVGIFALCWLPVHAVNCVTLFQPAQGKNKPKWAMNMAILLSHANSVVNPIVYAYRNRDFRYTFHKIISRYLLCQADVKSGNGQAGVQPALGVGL

The following molecules have reported results that may help.
molecule: COCC1CN(C(=O)c2nc(N[C@@H](C)c3ccccn3)nc3c(C)csc23)C1 [Example Z553]
value_reported: < 10 nM
//
molecule: Cc1cc2nc(N[C@@H](C)c3cncc(F)c3)nc(C(=O)N3CC[C@H](N)C3)c2s1 [Example Z412]
value_reported: 10 to 50 nM
//
molecule: C[C@H](Nc1nc(C(=O)N2CC(NC(=O)C3CC3)C2)c2sccc2n1)c1cncc(F)c1 [Example Z517]
value_reported: < 10 nM
//
molecule: CC(NC(=O)c1nc(NC(C)c2cccnc2)nc2ccsc12)c1cccnc1 (centres unmarked) [Example Z44]
value_reported: 100 to 500 nM
//
molecule: C[C@H](Nc1nc(C(=O)NCc2cncc(F)c2)c2sccc2n1)c1cccnc1 [Example Z20]
value_reported: 100 to 500 nM
//
molecule: C[C@H](Nc1nc(C(=O)N2CC[C@H](O)C2)c2sccc2n1)c1cncc(F)c1 [Example Z165]
value_reported: < 10 nM

Task item: For the molecule C[C@H](Nc1nc(C(=O)N2CC(CNS(C)(=O)=O)C2)c2sccc2n1)c1cncc(F)c1 [Example Z531] , what IC50 is on record?
Reply: 10 to 50 nM

Task item: For the molecule CNc1cc2nc(N[C@@H](C)c3cccnc3)nc(C(=O)N3CC[C@H](O)C3)c2s1 [Example Z188] , what IC50 is on record?
Reply: 10 to 50 nM

Task item: For the molecule C[C@H](Nc1nc(C(=O)NCc2ccccc2)c2sccc2n1)c1cccnc1 [Example Z42] , what IC50 is on record?
Reply: 100 to 500 nM

Task item: For the molecule CC(=O)Nc1ccc(CCNC(=O)c2nc(N[C@@H](C)c3cncc(F)c3)nc3ccsc23)cc1 [Example Z421] , what IC50 is on record?
Reply: 10 to 50 nM

Task item: For the molecule C[C@H](Nc1nc(C(=O)NC[C@@H](C)O)c2sccc2n1)c1cncc(F)c1 [Example Z190] , what IC50 is on record?
Reply: < 10 nM

Task item: For the molecule Cc1cc2nc(N[C@@H](C)c3ccccn3)nc(C(=O)NC3CCC3)c2s1 [Example Z352] , what IC50 is on record?
Reply: < 10 nM

Task item: For the molecule C[C@H](Nc1nc(C(=O)NCC2CCOCC2)c2sccc2n1)c1ccccn1 [Example Z227] , what IC50 is on record?
Reply: 10 to 50 nM

Task item: For the molecule C[C@H](Nc1nc(C(=O)N2CC(CNC(=O)OCC(C)(C)C)C2)c2sccc2n1)c1cncc(F)c1 [Example Z581] , what IC50 is on record?
Reply: 10 to 50 nM

Task item: For the molecule Cc1cc2nc(N[C@@H](C)c3cccnc3)nc(C(=O)N[C@H]3C[C@@H](O)C3)c2s1 [Example Z503] , what IC50 is on record?
Reply: 10 to 50 nM

Task item: For the molecule COc1ccc(CNc2nc(C(=O)NCc3cccnc3)c3sccc3n2)cn1 [Example Z436] , what IC50 is on record?
Reply: > 500 nM

Task item: For the molecule C[C@H](Nc1nc(C(=O)N2CCN(CCCc3ccccc3)CC2)c2sccc2n1)c1cccnc1 [Example Z69] , what IC50 is on record?
Reply: > 500 nM
